Attribution: patent US20030148958A1

# CRF2R EC50 values compiled below
# SYSTEM_NAME: T1, CRF2R
# T1 sequence (Q13324 whole entry, species assumed, looked up): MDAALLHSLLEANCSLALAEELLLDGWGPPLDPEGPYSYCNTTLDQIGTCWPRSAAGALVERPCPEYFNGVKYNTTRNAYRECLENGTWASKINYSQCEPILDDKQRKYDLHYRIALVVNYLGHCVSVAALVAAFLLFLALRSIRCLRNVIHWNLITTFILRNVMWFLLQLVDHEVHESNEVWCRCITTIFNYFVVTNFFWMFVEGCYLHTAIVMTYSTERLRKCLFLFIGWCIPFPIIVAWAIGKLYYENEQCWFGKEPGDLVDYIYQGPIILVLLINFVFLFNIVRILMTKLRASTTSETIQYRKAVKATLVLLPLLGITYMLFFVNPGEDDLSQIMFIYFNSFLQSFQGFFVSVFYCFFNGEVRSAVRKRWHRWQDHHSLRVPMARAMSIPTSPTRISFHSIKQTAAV
# ASSAY_EXPLANATION: cell-based or functional assay
Ends that are not written are not given here.
A number alone suffices; assume nM.

// solved cases for CRF2R EC50 follow
{"BINDER": "DNPSLSIDLPLLLLRTLLELEKTQSQRERAEQNAHIFAHV-NH2 [SEQ ID NO 328]", "CRF2R EC50 [nM]": 11.7}
{"BINDER": "ZGPPISIDLPYQLLRKVIEIEKQEKEKQQAANNRLLLDTI (C-terminal amide) [SEQ ID NO 283]", "CRF2R EC50 [nM]": 10.6}

Form: binder = ZGPPISIDLPYHLLRKVIEIEKQEKEKQQAANNALLLDTI (C-terminal amide) [SEQ ID NO 312] ; CRF2R EC50 = 14.1

Form: binder = ZGPPISIDLPFHLLRKMIEIEKQEKEKQQAANNALLLDTI (C-terminal amide) [SEQ ID NO 228] ; CRF2R EC50 = 7.1
